Attribution: paper PMC4912689

# log10 ratio listing for each entry below
B1: unnamed (parent)
chain 1: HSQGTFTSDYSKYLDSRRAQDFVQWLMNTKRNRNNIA
chain 2: RPQGATVSLWETVQKWREYRRQCQRSLTEDPPPATDLFCNRTFDEYACWPDGEPGSFVNVSCPWYLPWASSVPQGHVYRFCTAEGLWLQKDNSSLPWRDLSECEESKRGERSSPEEQLLFLYIIYTVGYALSFSALVIASAILLGFRHLHCTRNYIHLNLFASFILRALSVFIKDAALKWMYSTAAQQHQWDGLLSYQDSLSCRLVFLLMQYCVAANYYWLLVEGVYLYTLLAFSVLSEQWIFRLYVSIGWGVPLLFVVPWGIVKYLYEDEGCWTRNSNMNYWLIIRLPILFAIGVNFLIFVRVICIVVSKLKANLMCKTDIKCRLAKSTLTLIPLLGTHEVIFAFVMDEHARGTLRFIKLFTELSFTSFQGLMVAILYCFVNNEVQLEFRKSWERWRLEHLHIQRDSSMKPLKCPTSSLSSGATAGSSMYTATCQASCS

variants of: B1; assay: radioligand inhibition binding (competition with 125I-exendin-4(9-39)); details: read off a plot
endpoint: log10 ratio

changes="chain 2 Y268A" observed_result="-0.45 ΔpKi"
changes="chain 2 G272A" observed_result="0.15 ΔpKi"
changes="chain 2 C273A" observed_result="0.4 ΔpKi"
changes="chain 2 L267A" observed_result="-0.4 ΔpKi"
changes="chain 2 G354A" observed_result="-0.45 ΔpKi"
changes="chain 2 Y197A" observed_result="-0.3 ΔpKi"
changes="chain 2 D270A" observed_result="-1 ΔpKi"
changes="chain 2 K265A" observed_result="-1.4 ΔpKi"
changes="chain 2 R353A" observed_result="-0.35 ΔpKi"
changes="chain 2 H189A" observed_result="0.2 ΔpKi"
changes="chain 2 K179A" observed_result="-0.85 ΔpKi"
changes="chain 2 S278A" observed_result="-0.35 ΔpKi"
changes="chain 2 W274A" observed_result="-0.1 ΔpKi"
changes="chain 2 E364A" observed_result="-0.5 ΔpKi"
changes="chain 2 I359A" observed_result="0.05 ΔpKi"
changes="chain 2 T184A" observed_result="-0.05 ΔpKi"
changes="chain 2 R276A" observed_result="-1.9 ΔpKi"
changes="chain 2 G262A" observed_result="0.1 ΔpKi"
changes="chain 2 E350A" observed_result="-0.85 ΔpKi"
changes="chain 2 N279A" observed_result="-1.4 ΔpKi"
changes="chain 2 V264A" observed_result="-0.25 ΔpKi"
changes="chain 2 F362A" observed_result="-0.15 ΔpKi"
changes="chain 2 Y282A" observed_result="-1.9 ΔpKi"
changes="chain 2 K360A" observed_result="-0.9 ΔpKi"
changes="chain 2 S196A" observed_result="0.1 ΔpKi"
changes="chain 2 D199A" observed_result="-0.25 ΔpKi"
changes="chain 2 Q187A" observed_result="-0.65 ΔpKi"
changes="chain 2 R357A" observed_result="-0.55 ΔpKi"
changes="chain 2 Q188A" observed_result="-0.05 ΔpKi"
changes="chain 2 M280A" observed_result="-0.8 ΔpKi"
changes="chain 2 W180A" observed_result="-0.15 ΔpKi"
changes="chain 2 L284A" observed_result="-0.85 ΔpKi"
changes="chain 2 T355A" observed_result="-0.55 ΔpKi"
changes="chain 2 E271A" observed_result="-0.15 ΔpKi"
changes="chain 2 W191A" observed_result="-0.15 ΔpKi"
